The reported numbers originate from the Human Domainome abundance scans (Beltran et al. 2025).

B1: Tyrosine-protein kinase Lck, residues 63 to 120; numbered along this chain, P06239 (parent)
chain: DNLVIALHSYEPSHDGDLGFEKGEQLRILEQSGEWWKAQSLTTGQEGFIPFNFVAKAN

# Variants of: B1
# method.summary: abundance fitness (aPCA) (normalised: wild type 0, dead -1); higher = more abundant; growth selection in yeast, the domain comes from the species named
# condition.details: Homo sapiens
# class assignment by measured abundance fitness: low group: < -0.6; middle group: ≥ -0.6 and < -0.2; high group: ≥ -0.2

> print(dat)
    variant.id  qualitative.label
 1        E24W          low group
 2        G44T       middle group
 3        Q25Y         high group
 4        D15Y         high group
 5        V54L          low group
 6        E30H       middle group
 7        S32G         high group
 8        I49W          low group
 9        E30Y       middle group
10        A57F       middle group
11        R27D       middle group
12        F51H         high group
13         L3M         high group
14        S40N         high group
15        Q39W          low group
16        E24G          low group
17        L29M       middle group
18         A6G       middle group
19         H8L       middle group
20        K37D          low group
21        E34I         high group
